target: bacterial NAD synthetase enzyme (Bacillus subtilis, UniProt P08164); experiment: biochemical; assay type: biochemical; details: compound at 0.1 mM (Table 314)
Sequence (P08164 2-272 limits assumed): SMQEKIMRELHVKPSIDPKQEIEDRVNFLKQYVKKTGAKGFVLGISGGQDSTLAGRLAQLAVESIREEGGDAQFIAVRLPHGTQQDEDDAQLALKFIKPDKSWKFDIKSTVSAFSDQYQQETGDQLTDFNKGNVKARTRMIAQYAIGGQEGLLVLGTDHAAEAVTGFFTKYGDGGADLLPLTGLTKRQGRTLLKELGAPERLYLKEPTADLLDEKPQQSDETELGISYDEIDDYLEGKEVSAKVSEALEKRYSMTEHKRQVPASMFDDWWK
Endpoint: % Inhibition (%)

[
  {
    "Compound": "CC(C)c1ccc2[nH]c(CCC[n+]3cccc4ccccc43)cc2c1 [Compound 426]",
    "Endpoint": "% Inhibition",
    "Unit of measure": "%",
    "Val": 5.49
  },
  {
    "Compound": "COC(=O)c1cc2cc(OCc3ccccc3)ccc2n1CCCCCCCCCOC(=O)c1ccc[n+](C)c1 [Compound 978]",
    "Endpoint": "% Inhibition",
    "Unit of measure": "%",
    "Val": 80.31
  },
  {
    "Compound": "CCCCc1ccc2[nH]c(CCCCCCCC[n+]3ccccc3)cc2c1 [Compound 317]",
    "Endpoint": "% Inhibition",
    "Unit of measure": "%",
    "Val": 25.04
  },
  {
    "Compound": "COc1ccc2[nH]c(CCCC[n+]3ccc4ccccc4c3)cc2c1 [Compound 589]",
    "Endpoint": "% Inhibition",
    "Unit of measure": "%",
    "Val": 24.98
  },
  {
    "Compound": "C[N+](C)(C)c1cccc(C(=O)OCCCCCCCc2cc3cc(C(=O)c4ccccc4)ccc3[nH]2)c1 [Compound 881]",
    "Endpoint": "% Inhibition",
    "Unit of measure": "%",
    "Val": 90.89
  },
  {
    "Compound": "c1ccc(C(c2ccccc2)(c2ccccc2)c2ccc3[nH]c(CCC[n+]4ccccc4)cc3c2)cc1 [Compound 336]",
    "Endpoint": "% Inhibition",
    "Unit of measure": "%",
    "Val": 18.02
  },
  {
    "Compound": "FC(F)(F)c1ccc2cc(CCCC[n+]3cccc4ccccc43)[nH]c2c1 [Compound 397]",
    "Endpoint": "% Inhibition",
    "Unit of measure": "%",
    "Val": 4.51
  },
  {
    "Compound": "O=C(O)c1ccc2[nH]c(CCCCCC[n+]3ccccc3)cc2c1 [Compound 387]",
    "Endpoint": "% Inhibition",
    "Unit of measure": "%",
    "Val": 29.97
  },
  {
    "Compound": "O=[N+]([O-])c1cc([N+](=O)[O-])c2[nH]c(CCCCCC[n+]3ccccc3)cc2c1 [Compound 309]",
    "Endpoint": "% Inhibition",
    "Unit of measure": "%",
    "Val": 41.47
  },
  {
    "Compound": "CN(C)c1ccc(CC(=O)OCCCCCn2ccc3cc([N+](=O)[O-])ccc32)cc1 [Compound 849]",
    "Endpoint": "% Inhibition",
    "Unit of measure": "%",
    "Val": 90.92
  },
  {
    "Compound": "CCCCc1ccc2[nH]c(CCCCC[n+]3ccccc3)cc2c1 [Compound 314]",
    "Endpoint": "% Inhibition",
    "Unit of measure": "%",
    "Val": 9.19
  },
  {
    "Compound": "O=C(c1ccccc1)c1ccc2[nH]c(CCCC[n+]3ccccc3)cc2c1 [Compound 355]",
    "Endpoint": "% Inhibition",
    "Unit of measure": "%",
    "Val": 3.31
  },
  {
    "Compound": "COC(=O)C=Cc1cn(CCCCCCC[n+]2cccc(C(=O)OC)c2)c2ccccc12 [Compound 269]",
    "Endpoint": "% Inhibition",
    "Unit of measure": "%",
    "Val": 51.12
  },
  {
    "Compound": "O=[N+]([O-])c1ccc2[nH]c(CCCC[n+]3cccc4ccccc43)cc2c1 [Compound 439]",
    "Endpoint": "% Inhibition",
    "Unit of measure": "%",
    "Val": 2.57
  },
  {
    "Compound": "c1ccc(C(c2ccccc2)(c2ccccc2)c2ccc3[nH]c(CCC[n+]4ccc5ccccc5c4)cc3c2)cc1 [Compound 552]",
    "Endpoint": "% Inhibition",
    "Unit of measure": "%",
    "Val": 15.24
  },
  {
    "Compound": "c1ccc2c[n+](CCCCCc3cc4ccccc4[nH]3)ccc2c1 [Compound 500]",
    "Endpoint": "% Inhibition",
    "Unit of measure": "%",
    "Val": 18.25
  },
  {
    "Compound": "c1ccc(-c2ccc3[nH]c(CCCCC[n+]4ccccc4)cc3c2)cc1 [Compound 326]",
    "Endpoint": "% Inhibition",
    "Unit of measure": "%",
    "Val": 16.11
  }
]
